molecular target: HsCKα1 (Homo sapiens); construct: made in house; assay: Ki determination and mode of inhibition; assay type: biochemical; details: mixed inhibition, approximate value; read-out: Ki, HsCKα1, with respect to ATP
pKi: −log10 of the molar value.
ENDPOINT_LABEL: pKi

Enquiry: Supply measured pKi of CN(C)c1cc[n+](Cc2ccc(-c3ccc(C[n+]4ccc(N5CCCC5)cc4)cc3)cc2)cc1.[Br-].[Br-] [BR23] in your reply.
Return: ~5.40

---

Give measured pIC50 for each item. Keep answers brief.
target: HsCKα1 (Homo sapiens, UniProt P35790); construct: made in house; assay: IC50 determination, spectrophotometric CK/EK enzyme assay; assay type: biochemical; conditions: read-out: IC50 HsCK, Cho; Cho as substrate, 0.5 mM each substrate
Sequence (P35790 whole entry): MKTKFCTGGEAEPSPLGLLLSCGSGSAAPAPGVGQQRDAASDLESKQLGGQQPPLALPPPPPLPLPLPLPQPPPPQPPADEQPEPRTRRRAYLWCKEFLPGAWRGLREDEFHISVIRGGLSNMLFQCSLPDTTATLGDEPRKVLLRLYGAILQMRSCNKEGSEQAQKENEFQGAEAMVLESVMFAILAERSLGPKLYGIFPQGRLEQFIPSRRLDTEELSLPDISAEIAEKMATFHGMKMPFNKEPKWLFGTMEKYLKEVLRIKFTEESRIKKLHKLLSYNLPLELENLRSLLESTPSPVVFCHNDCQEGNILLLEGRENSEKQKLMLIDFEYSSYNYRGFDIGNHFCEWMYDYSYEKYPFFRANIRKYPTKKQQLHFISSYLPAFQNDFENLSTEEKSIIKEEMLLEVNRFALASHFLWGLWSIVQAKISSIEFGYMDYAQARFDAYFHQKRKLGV
Give bare numbers, as −log10 of the molar value.

In [3]: df
Out[3]:
                                   compound                          system_tested  endpoint_label  assay_result
0  CN(C)c1cc[n+](Cc2ccc(CCCCc3ccc(C[n+]4ccc(N5CCCC5)cc4)cc3)cc2)cc1.[Br-].[Br-] [BR25]  HsCKα1 (Homo sapiens, UniProt P35790)           pIC50          6.25

Enquiry: Recall and state the measured pIC50 for CN(C)c1cc[n+](Cc2ccc(-c3ccc(C[n+]4ccc(N5CCCC5)cc4)cc3)cc2)cc1.[Br-].[Br-] [BR23] .
Return: 6.24
